# experimental_system: human orexin-2 receptor (Homo sapiens (Human), UniProt O43614)
# Sequence (O43614 whole entry): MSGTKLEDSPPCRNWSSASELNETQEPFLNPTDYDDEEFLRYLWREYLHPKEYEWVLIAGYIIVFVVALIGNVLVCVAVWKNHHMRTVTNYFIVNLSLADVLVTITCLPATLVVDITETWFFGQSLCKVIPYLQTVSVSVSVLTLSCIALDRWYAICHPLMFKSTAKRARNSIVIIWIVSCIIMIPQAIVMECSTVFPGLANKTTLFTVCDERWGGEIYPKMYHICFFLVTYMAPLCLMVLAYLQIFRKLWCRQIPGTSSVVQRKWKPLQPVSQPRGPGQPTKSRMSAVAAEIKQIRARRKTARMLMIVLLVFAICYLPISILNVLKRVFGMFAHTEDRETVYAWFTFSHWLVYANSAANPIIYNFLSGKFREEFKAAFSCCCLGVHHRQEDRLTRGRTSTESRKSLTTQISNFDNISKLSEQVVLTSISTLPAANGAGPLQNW
# experiment_summary: FLIPR Ca2+ Flux Assay, CHO cells expressing orexin-2 receptor
# measurement_conditions: 70 pM Ala-6,12 orexin-A agonist, read-out: hOX2R FLIPR IC50
measure_name: IC50 (nM)
Give bare numbers, in nM.

>>> print(df.to_string())
                               query_smiles                       experimental_system  readout_value
0  Cc1nc(-c2cccc(F)c2C(=O)N2C[C@H](Oc3nccc4c3C(=O)OC4(C)C)CC[C@H]2C)no1  human orexin-2 receptor (Homo sapiens (Human), UniProt O43614)             65
1  C[C@@H]1CC[C@@H](Oc2nccc3c2C(=O)OC3(C)C)CN1C(=O)c1ccccc1-c1ncccn1  human orexin-2 receptor (Homo sapiens (Human), UniProt O43614)             76

For every item below, please supply its IC50.
1. C[C@@H]1CC[C@@H](Oc2nccc3c2C(=O)OC3(C)C)CN1C(=O)c1cccc(F)c1-c1ncccn1
2. C[C@@H]1CC[C@@H](Oc2nccc3c2C(=O)OC3(C)C)CN1C(=O)c1ccccc1-n1ncnn1
3. Cc1nc(-c2c(F)cccc2C(=O)N2C[C@H](Oc3nccc4c3C(=O)OC4(C)C)CC[C@H]2C)no1
4. C[C@@H]1CC[C@@H](Oc2nccc3c2C(=O)OC3(C)C)CN1C(=O)c1cc(F)ccc1-c1ncccn1
5. Cc1nc(-c2ccc(F)cc2C(=O)N2C[C@H](Oc3nccc4c3C(=O)OC4(C)C)CC[C@H]2C)no1

Completion:
[139, 109, 90, 72, 76]

The following molecules each have a reported value; give each one's IC50.
1. C[C@@H]1CC[C@@H](Nc2nccc3c2C(=O)OC3)CN1C(=O)c1ccccc1-n1nccn1
2. C[C@@H]1CC[C@@H](N(C)c2nccc3c2C(=O)OC3(C)C)CN1C(=O)c1ccccc1-n1ncnn1
3. COc1ccc(C(=O)N2C[C@H](Oc3nccc4c3C(=O)OC4(C)C)CC[C@H]2C)c(-n2nccn2)c1
4. Cc1noc(-c2ccc(F)cc2C(=O)N2C[C@H](Oc3nccc4c3C(=O)OC4(C)C)CC[C@H]2C)n1
5. C[C@@H]1CC[C@@H](Oc2nccc3c2C(=O)OC3(C)C)CN1C(=O)c1cccc(F)c1-n1nccn1

Completion:
1. 136
2. 127
3. 147
4. 90
5. 132

Provenance of the data: patent US9556190B2
